- ASSAYED_TARGET: UniProt:Q02763
- Sequence (Q02763 whole entry): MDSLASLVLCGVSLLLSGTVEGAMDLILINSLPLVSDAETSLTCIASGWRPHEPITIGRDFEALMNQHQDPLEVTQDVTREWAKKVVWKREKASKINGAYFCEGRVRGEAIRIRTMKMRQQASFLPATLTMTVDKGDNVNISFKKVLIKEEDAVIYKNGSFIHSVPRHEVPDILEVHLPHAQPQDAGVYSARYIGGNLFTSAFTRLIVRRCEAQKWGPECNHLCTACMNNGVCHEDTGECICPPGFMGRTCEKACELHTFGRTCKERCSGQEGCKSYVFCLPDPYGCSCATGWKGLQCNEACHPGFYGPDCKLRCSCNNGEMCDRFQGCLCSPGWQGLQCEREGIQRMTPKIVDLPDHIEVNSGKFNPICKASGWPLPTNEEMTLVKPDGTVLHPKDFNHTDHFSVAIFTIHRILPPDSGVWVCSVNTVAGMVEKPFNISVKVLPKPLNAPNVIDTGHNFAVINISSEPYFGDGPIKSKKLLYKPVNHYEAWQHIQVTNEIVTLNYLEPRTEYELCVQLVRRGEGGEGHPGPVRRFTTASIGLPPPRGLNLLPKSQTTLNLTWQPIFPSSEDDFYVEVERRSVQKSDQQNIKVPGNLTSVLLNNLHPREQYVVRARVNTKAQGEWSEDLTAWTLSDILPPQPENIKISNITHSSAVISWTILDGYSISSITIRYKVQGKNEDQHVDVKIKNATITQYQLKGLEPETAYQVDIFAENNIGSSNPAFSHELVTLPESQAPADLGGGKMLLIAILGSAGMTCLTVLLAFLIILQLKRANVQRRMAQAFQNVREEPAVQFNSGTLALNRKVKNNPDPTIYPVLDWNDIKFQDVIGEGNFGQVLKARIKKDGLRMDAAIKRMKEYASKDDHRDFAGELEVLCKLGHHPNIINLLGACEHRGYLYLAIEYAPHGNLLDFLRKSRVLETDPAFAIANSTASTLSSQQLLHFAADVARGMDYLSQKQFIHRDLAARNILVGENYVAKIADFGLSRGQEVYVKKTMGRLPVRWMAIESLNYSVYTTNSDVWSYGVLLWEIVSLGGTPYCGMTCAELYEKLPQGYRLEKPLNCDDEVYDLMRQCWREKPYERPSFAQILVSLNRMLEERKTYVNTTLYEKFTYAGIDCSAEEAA
- PROTOCOL: Inhibition of Tie2 after 1 hr
Each entry below carries its reported IC50.
ASSAY_ENDPOINT: IC50 (nM)

O=C(Nc1cccc(-c2cn3ccnc3c(NCc3ccncc3)n2)c1)Nc1cc(C(F)(F)F)ccc1F = 37
COc1ccc(C(F)(F)F)cc1NC(=O)Nc1cccc(-c2cn3ccnc3c(NCc3ccncc3)n2)c1 = 33
COc1ccc(Br)cc1NC(=O)Nc1cccc(-c2cn3ccnc3c(NCc3ccncc3)n2)c1 = 75
O=C(Nc1cccc(-c2cn3ccnc3c(NCc3ccncc3)n2)c1)Nc1cccc(C(F)(F)F)c1 = 67

###

- ASSAYED_TARGET: Ephrin type-B receptor 4 (Homo sapiens) (UniProt P54760)
- Sequence (P54760 whole entry): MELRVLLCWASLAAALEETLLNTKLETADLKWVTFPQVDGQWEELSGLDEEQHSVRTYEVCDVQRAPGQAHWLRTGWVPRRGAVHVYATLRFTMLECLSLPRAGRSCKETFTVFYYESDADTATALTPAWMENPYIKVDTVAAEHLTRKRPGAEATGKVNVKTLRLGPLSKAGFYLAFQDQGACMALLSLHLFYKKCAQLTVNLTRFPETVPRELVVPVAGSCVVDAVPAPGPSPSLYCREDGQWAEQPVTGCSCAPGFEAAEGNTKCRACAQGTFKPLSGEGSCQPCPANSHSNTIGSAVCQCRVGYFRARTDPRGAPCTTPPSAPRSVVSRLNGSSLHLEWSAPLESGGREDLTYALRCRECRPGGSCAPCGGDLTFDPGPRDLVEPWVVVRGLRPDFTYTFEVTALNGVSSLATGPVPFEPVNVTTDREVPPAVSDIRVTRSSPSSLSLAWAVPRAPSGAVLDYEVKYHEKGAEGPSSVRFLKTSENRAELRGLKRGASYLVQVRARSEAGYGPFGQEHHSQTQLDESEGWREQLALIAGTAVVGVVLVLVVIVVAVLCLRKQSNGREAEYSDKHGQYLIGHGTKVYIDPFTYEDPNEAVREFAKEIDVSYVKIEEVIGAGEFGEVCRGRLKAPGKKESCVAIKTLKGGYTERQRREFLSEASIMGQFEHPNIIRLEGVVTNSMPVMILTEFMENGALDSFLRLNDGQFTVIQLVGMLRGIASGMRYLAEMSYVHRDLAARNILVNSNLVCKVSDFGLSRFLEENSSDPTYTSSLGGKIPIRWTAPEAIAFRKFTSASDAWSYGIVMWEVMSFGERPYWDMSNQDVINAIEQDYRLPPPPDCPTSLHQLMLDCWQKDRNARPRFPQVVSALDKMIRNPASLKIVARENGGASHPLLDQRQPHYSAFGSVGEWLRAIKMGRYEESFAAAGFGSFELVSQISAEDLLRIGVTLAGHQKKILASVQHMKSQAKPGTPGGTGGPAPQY
- PROTOCOL: Inhibition of EphB4 at 1 uM after 1 hr
If the reported inhibition equals or exceeds 20%, assign 1. If not, assign -1.

CCc1ccc(NC(=O)Nc2cccc(-c3cn4ccnc4c(NCc4ccncc4)n3)c2)cc1 = -1
O=C(Nc1cccc(-c2cn3ccnc3c(NCc3ccncc3)n2)c1)Nc1ccccc1Oc1ccccc1 = 1
O=C(Nc1ccc(Br)cc1)Nc1cccc(-c2cn3ccnc3c(NCc3ccncc3)n2)c1 = 1
O=C(Nc1cccc(-c2cn3ccnc3c(NCc3ccncc3)n2)c1)Nc1ccccc1F = 1
O=C(Nc1cccc(-c2cn3ccnc3c(NCc3ccncc3)n2)c1)Nc1ccccc1C(F)(F)F = 1
COc1ccc(NC(=O)Nc2cccc(-c3cn4ccnc4c(NCc4ccncc4)n3)c2)cc1 = -1
O=C(Nc1cccc(F)c1)Nc1cccc(-c2cn3ccnc3c(NCc3ccncc3)n2)c1 = 1
O=C(Nc1cccc(-c2cn3ccnc3c(Nc3cccnc3)n2)c1)Nc1cccc(C(F)(F)F)c1 = -1
O=C(Nc1ccccc1)Nc1cccc(-c2cn3ccnc3c(NCc3ccncc3)n2)c1 = -1
COc1ccccc1NC(=O)Nc1cccc(-c2cn3ccnc3c(NCc3ccncc3)n2)c1 = 1
O=C(Nc1ccc(C(F)(F)F)cc1)Nc1cccc(-c2cn3ccnc3c(NCc3ccncc3)n2)c1 = -1
Cc1ccccc1NC(=O)Nc1cccc(-c2cn3ccnc3c(NCc3ccncc3)n2)c1 = 1
CSc1ccccc1NC(=O)Nc1cccc(-c2cn3ccnc3c(NCc3ccncc3)n2)c1 = 1
COc1ccc(C(F)(F)F)cc1NC(=O)CNc1cccc(-c2cn3ccnc3c(NCc3ccncc3)n2)c1 = -1

Data provenance: ChEMBL document CHEMBL1153704
